Molecular target: Vasopressin V2 (Rattus norvegicus, UniProt Q00788)
Sequence (Q00788 whole entry): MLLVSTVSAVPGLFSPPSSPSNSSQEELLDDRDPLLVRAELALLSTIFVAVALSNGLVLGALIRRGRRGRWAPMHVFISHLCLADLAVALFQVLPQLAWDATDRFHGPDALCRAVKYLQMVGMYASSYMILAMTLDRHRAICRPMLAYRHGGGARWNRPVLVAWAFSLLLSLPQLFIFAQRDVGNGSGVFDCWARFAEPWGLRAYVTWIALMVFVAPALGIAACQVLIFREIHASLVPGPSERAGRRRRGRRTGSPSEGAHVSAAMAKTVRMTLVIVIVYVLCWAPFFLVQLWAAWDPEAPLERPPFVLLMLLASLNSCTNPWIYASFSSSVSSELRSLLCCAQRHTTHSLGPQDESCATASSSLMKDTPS
Test: Vasopressin V2 agonist effects in normal conscious water-loaded rats
Format: in vivo
Set-up: from tissue; host or cells: whole living Sprague-Dawley rat; the receptor is the animal's own (renal, by own knowledge)
Details: Sprague-Dawley (CD) rats, 10 mg/kg oral, vs. control, urine collected four hours
Consider the cut-off 70%. If the recorded Urine Volume (% decrease) is strictly smaller, the label is condition met; if not, the label is condition not met.

- compound: "O=C(c1ccc(-n2ccc(C3CC3)n2)cc1C(F)(F)F)N1Cc2cccn2Cc2ccccc21"
  group-label: "condition met"
- compound: "Cc1ccn(-c2ccc(C(=O)N3Cc4cccn4Cc4ccccc43)c(Br)c2)n1"
  group-label: "condition met"
- compound: "Cc1ccn(-c2ccc(C(=O)N3Cc4cccn4Cc4ccccc43)c(O)c2)n1"
  group-label: "condition met"

Say whether its Urine Volume (% decrease) is strictly beneath 70%. Entry: N#Cc1ccc(C(=O)N2Cc3cccn3Cc3ccccc32)c(Cl)c1 condition met

Say whether its Urine Volume (% decrease) is strictly beneath 70%. Entry: COCn1ccc(-c2ccc(C(=O)N3Cc4cccn4Cc4ccccc43)cc2)n1 condition met

Say whether its Urine Volume (% decrease) is strictly beneath 70%. Entry: Cc1nc(-c2ccc(C(=O)N3Cc4cccn4Cc4ccccc43)c(Cl)c2)n(C)n1 condition not met

Say whether its Urine Volume (% decrease) is strictly beneath 70%. Entry: O=C(c1ccc(-n2cccn2)nc1Cl)N1Cc2cccn2Cc2ccccc21 condition met

Say whether its Urine Volume (% decrease) is strictly beneath 70%. Entry: Cc1cnn(-c2ccc(C(=O)N3Cc4cccn4Cc4ccccc43)c(C(F)(F)F)c2)c1 condition met

Say whether its Urine Volume (% decrease) is strictly beneath 70%. Entry: O=C(c1ccc(-c2ccn(C(=O)c3ccccc3-c3ccccc3)n2)cc1)N1Cc2cccn2Cc2ccccc21 condition met

Say whether its Urine Volume (% decrease) is strictly beneath 70%. Entry: Cc1ccn(-c2ccc(C(=O)O)c(Cl)c2)n1 condition met

Say whether its Urine Volume (% decrease) is strictly beneath 70%. Entry: Cc1cnn(-c2ccc(C(=O)N3Cc4cccn4Cc4ccccc43)c(Cl)n2)c1 condition not met

Say whether its Urine Volume (% decrease) is strictly beneath 70%. Entry: Cc1cn(-c2ccc(C(=O)N3Cc4cccn4Cc4ccccc43)cc2)cn1 condition not met

Say whether its Urine Volume (% decrease) is strictly beneath 70%. Entry: Cc1cc(C)n(-c2ccc(C(=O)N3Cc4cccn4Cc4ccccc43)cc2)n1 condition met

Say whether its Urine Volume (% decrease) is strictly beneath 70%. Entry: Cn1ccc(-c2ccc(C(=O)N3Cc4ccnn4Cc4ccccc43)cc2)n1 [Example 120A] condition met

Say whether its Urine Volume (% decrease) is strictly beneath 70%. Entry: Cn1cc(-c2ccc(C(=O)N3Cc4cccn4Cc4ccccc43)cc2)cn1 condition not met
